- Target system: Beta-ketoacyl-[acyl-carrier-protein] synthase III (Escherichia coli K-12, UniProt P0A6R0)
- Sequence (P0A6R0 whole entry): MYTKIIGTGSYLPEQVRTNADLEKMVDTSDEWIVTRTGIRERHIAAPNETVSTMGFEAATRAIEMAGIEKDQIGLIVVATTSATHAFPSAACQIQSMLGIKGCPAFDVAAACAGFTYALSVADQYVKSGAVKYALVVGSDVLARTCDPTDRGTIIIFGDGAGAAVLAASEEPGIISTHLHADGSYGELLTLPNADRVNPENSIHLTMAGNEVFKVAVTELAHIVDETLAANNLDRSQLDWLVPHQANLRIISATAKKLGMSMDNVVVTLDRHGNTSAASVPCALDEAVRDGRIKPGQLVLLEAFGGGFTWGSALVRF
- Assay overview: Inhibition of Escherichia coli FabH expressed in Escherichia coli DH10B using holo-ACP/acetyl-CoA as substrate assessed as incorporation of [3H] signal in final product preincubated with holo-ACP for 1 hr followed by acetyl-CoA addition measured after 25 mins by liquid scintillation counting method
I'd be grateful if you could share measured pIC50 for these entries.
Note on units: pIC50 is unitless, being -log10 of a concentration expressed in mol/L.

Quick one: pIC50 for O=C(N/N=C/c1ccc2ccccc2c1)c1ccc2c(c1)OCCCO2 ?
5.34

Quick one: pIC50 for CN(C)c1ccc(/C=N/NC(=O)c2ccc3c(c2)OCCCO3)cc1 ?
5.14

Quick one: pIC50 for O=C(N/N=C/c1ccc(O)cc1)c1ccc2c(c1)OCCCO2 ?
4.41

Quick one: pIC50 for COc1ccc(/C=N/NC(=O)c2ccc3c(c2)OCCCO3)cc1 ?
4.62

Quick one: pIC50 for O=C(N/N=C/c1cc([N+](=O)[O-])ccc1Cl)c1ccc2c(c1)OCCCO2 ?
5.41

Quick one: pIC50 for COc1cc(/C=N/NC(=O)c2ccc3c(c2)OCCCO3)cc(OC)c1OC ?
5.70

Quick one: pIC50 for O=C(N/N=C/c1ccc(O)c(O)c1)c1ccc2c(c1)OCCCO2 ?
5.11

Quick one: pIC50 for O=C(N/N=C/c1cccc2ccccc12)c1ccc2c(c1)OCCCO2 ?
5.28

Quick one: pIC50 for O=C(N/N=C/c1ccc(I)cc1)c1ccc2c(c1)OCCCO2 ?
5.16

Quick one: pIC50 for O=C(N/N=C/c1ccc(C(F)(F)F)cc1)c1ccc2c(c1)OCCCO2 ?
4.91

Quick one: pIC50 for O=C(N/N=C/c1c(F)cccc1Cl)c1ccc2c(c1)OCCCO2 ?
4.69

Quick one: pIC50 for COc1cc(/C=N/NC(=O)c2ccc3c(c2)OCCCO3)cc(OC)c1O ?
5.41

Quick one: pIC50 for O=C(N/N=C/c1cc([N+](=O)[O-])ccc1O)c1ccc2c(c1)OCCCO2 ?
5.46

Quick one: pIC50 for O=C(N/N=C/c1ccc([N+](=O)[O-])cc1)c1ccc2c(c1)OCCCO2 ?
4.75

Quick one: pIC50 for O=C(N/N=C/c1ccc(F)c([N+](=O)[O-])c1)c1ccc2c(c1)OCCCO2 ?
5.29

Quick one: pIC50 for O=C(N/N=C/c1ccc(F)cc1)c1ccc2c(c1)OCCCO2 ?
4.49

Quick one: pIC50 for O=C(N/N=C/c1cc([N+](=O)[O-])ccc1F)c1ccc2c(c1)OCCCO2 ?
5.02

Quick one: pIC50 for O=C(N/N=C/c1ccc(O)c([N+](=O)[O-])c1)c1ccc2c(c1)OCCCO2 ?
5.05

Quick one: pIC50 for O=C(N/N=C/c1ccc(-c2ccccc2)cc1)c1ccc2c(c1)OCCCO2 ?
5.33

Quick one: pIC50 for C(=N\C1CCCCC1)/c1ccc2c(c1)OCCCO2 ?
5.80

Quick one: pIC50 for CN(C)c1ccc(/C=N/NC(=O)c2ccc3c(c2)OCCCO3)c(O)c1 ?
5.17

Quick one: pIC50 for O=C(N/N=C/c1cc(Cl)cc(Cl)c1O)c1ccc2c(c1)OCCCO2 ?
5.27
